System: Escherichia coli TOP10;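 also: peptides expressed intracellularly from a pBAD plasmid library in pooled LB shake-flask culture, induced with 0.3% L-arabinose, DNA abundance read by NGS, three biological replicates, DESeq2 with apeglm shrinkage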
experiment summary: shrunken log2 fold change of peptide-encoding DNA abundance (4.5 h post-induction vs induction); higher = less antimicrobial activity (less host growth inhibition)
experimental setup: time post-induction: 4.5 h; library: site-saturation at positions 5, 18, 19, 20
endpoint name: shrunken log2 fold change

- sequence text: "RRIRCRPPRLPRPRPRPNKPPRP"
  result: 0.0511
- sequence text: "RRIRMRPPRLPRPRPRPKKVPRP"
  result: 0.561
- sequence text: "RRIRGRPPRLPRPRPRPSRFPRP"
  result: 0.0371
- sequence text: "RRIRGRPPRLPRPRPRPLRWPRP"
  result: 1.33
- sequence text: "RRIRLRPPRLPRPRPRPWKSPRP"
  result: 0.0457
- sequence text: "RRIRGRPPRLPRPRPRPESLPRP"
  result: 0.595
- sequence text: "RRIRMRPPRLPRPRPRPATRPRP"
  result: 1.58
- sequence text: "RRIRERPPRLPRPRPRPCCYPRP"
  result: 0.00792
- sequence text: "RRIRQRPPRLPRPRPRPIWVPRP"
  result: -0.344
- sequence text: "RRIRARPPRLPRPRPRPMMYPRP"
  result: -0.134
- sequence text: "RRIRVRPPRLPRPRPRPIKMPRP"
  result: -0.697
- sequence text: "RRIRIRPPRLPRPRPRPQIDPRP"
  result: -2.56
- sequence text: "RRIRQRPPRLPRPRPRPRTAPRP"
  result: 0.0467
- sequence text: "RRIRMRPPRLPRPRPRPSSTPRP"
  result: 0.858
- sequence text: "RRIRTRPPRLPRPRPRPVGEPRP"
  result: -0.0292
- sequence text: "RRIRRRPPRLPRPRPRPGEKPRP"
  result: 0.0687
- sequence text: "RRIRLRPPRLPRPRPRPRRSPRP"
  result: -0.169
- sequence text: "RRIRPRPPRLPRPRPRPAMTPRP"
  result: -0.085
- sequence text: "RRIRDRPPRLPRPRPRPKGKPRP"
  result: 0.142
- sequence text: "RRIRMRPPRLPRPRPRPGWFPRP"
  result: 1.16
- sequence text: "RRIRSRPPRLPRPRPRPDLHPRP"
  result: -0.0732
- sequence text: "RRIRVRPPRLPRPRPRPTYEPRP"
  result: -0.152
- sequence text: "RRIRWRPPRLPRPRPRPDNLPRP"
  result: -0.188
- sequence text: "RRIRMRPPRLPRPRPRPDTIPRP"
  result: 0.0143
- sequence text: "RRIRLRPPRLPRPRPRPHFKPRP"
  result: -0.367
- sequence text: "RRIRIRPPRLPRPRPRPHCQPRP"
  result: -0.173
- sequence text: "RRIRWRPPRLPRPRPRPSHIPRP"
  result: -0.241
- sequence text: "RRIRQRPPRLPRPRPRPDIIPRP"
  result: -0.0199
- sequence text: "RRIRQRPPRLPRPRPRPHESPRP"
  result: -0.126
- sequence text: "RRIRERPPRLPRPRPRPDSSPRP"
  result: -0.509
- sequence text: "RRIRARPPRLPRPRPRPPSEPRP"
  result: 1.17
- sequence text: "RRIRLRPPRLPRPRPRPMGVPRP"
  result: -0.0231
- sequence text: "RRIRARPPRLPRPRPRPYYKPRP"
  result: -0.675
- sequence text: "RRIRERPPRLPRPRPRPMILPRP"
  result: -0.388
- sequence text: "RRIRTRPPRLPRPRPRPKWGPRP"
  result: 0.118
- sequence text: "RRIRLRPPRLPRPRPRPQIHPRP"
  result: -0.154
- sequence text: "RRIRLRPPRLPRPRPRPQGWPRP"
  result: 0.495
- sequence text: "RRIRPRPPRLPRPRPRPFPDPRP"
  result: 0.00657
- sequence text: "RRIRVRPPRLPRPRPRPKPVPRP"
  result: 0.42
- sequence text: "RRIRSRPPRLPRPRPRPAASPRP"
  result: -0.0449
- sequence text: "RRIRSRPPRLPRPRPRPDNFPRP"
  result: -0.299
- sequence text: "RRIRPRPPRLPRPRPRPPQQPRP"
  result: 0.345
- sequence text: "RRIRYRPPRLPRPRPRPFMIPRP"
  result: -1.21
- sequence text: "RRIRFRPPRLPRPRPRPDCVPRP"
  result: -0.0904
- sequence text: "RRIRSRPPRLPRPRPRPPFQPRP"
  result: 0.073
- sequence text: "RRIRNRPPRLPRPRPRPHAHPRP"
  result: -0.0247
- sequence text: "RRIRSRPPRLPRPRPRPDLKPRP"
  result: -0.00372
- sequence text: "RRIRQRPPRLPRPRPRPAYWPRP"
  result: 0.128
- sequence text: "RRIRTRPPRLPRPRPRPIMCPRP"
  result: -0.255
- sequence text: "RRIRTRPPRLPRPRPRPCMTPRP"
  result: -0.111
- sequence text: "RRIRSRPPRLPRPRPRPNHNPRP"
  result: -0.784
- sequence text: "RRIRYRPPRLPRPRPRPVSCPRP"
  result: -0.0731
- sequence text: "RRIRGRPPRLPRPRPRPGSKPRP"
  result: 0.0737
- sequence text: "RRIRQRPPRLPRPRPRPYNEPRP"
  result: -0.184
- sequence text: "RRIRTRPPRLPRPRPRPPLTPRP"
  result: 0.13
- sequence text: "RRIRYRPPRLPRPRPRPVAHPRP"
  result: -0.419
- sequence text: "RRIRSRPPRLPRPRPRPAMGPRP"
  result: 0.313
- sequence text: "RRIRWRPPRLPRPRPRPWWCPRP"
  result: -0.0237
- sequence text: "RRIRRRPPRLPRPRPRPEHVPRP"
  result: 0.232
- sequence text: "RRIRPRPPRLPRPRPRPITKPRP"
  result: -0.0256
- sequence text: "RRIRGRPPRLPRPRPRPYGRPRP"
  result: 0.047
- sequence text: "RRIRIRPPRLPRPRPRPDRCPRP"
  result: -0.163
- sequence text: "RRIRHRPPRLPRPRPRPRGYPRP"
  result: -0.144
